Test system: normal primary NK cells, pool 1 (3 donors) (IL-2 2.5 ng/mL);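 note: normalised to DMSO-only wells as negative and benzethonium chloride as positive control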
ASSAY COMMENT: percent inhibition of viability; higher = more inhibition
TEST PARAMETERS: 72 h; 100 nM
Please assign rule not met whenever percent inhibition of viability is at or above 10%, and rule met whenever it is below.

[
  {
    "COMPOUND": "CCOC(=O)CCNc1cc(N2CCc3ccccc3CC2)nc(-c2ccccn2)n1 [GSK-J4] (max concentration tested 100000 nM)",
    "CLASSIFICATION": "rule met"
  },
  {
    "COMPOUND": "COc1cc([C@@H]2c3cc4c(cc3[C@@H](O[C@@H]3O[C@@H]5CO[C@@H](c6cccs6)O[C@H]5[C@H](O)[C@H]3O)[C@H]3COC(=O)[C@H]23)OCO4)cc(OC)c1O [Teniposide] (max concentration tested 10000 nM)",
    "CLASSIFICATION": "rule not met"
  },
  {
    "COMPOUND": "O=C(Nc1cccc(Cl)c1)Nc1ncc(CCNc2ncnc3ccsc23)s1 [SNS-314] (max concentration tested 1000 nM)",
    "CLASSIFICATION": "rule met"
  },
  {
    "COMPOUND": "CCn1c(-c2nonc2N)nc2cnc(Oc3cccc(NC(=O)c4ccc(OCCN5CCOCC5)cc4)c3)cc21 (max concentration tested 10000 nM)",
    "CLASSIFICATION": "rule met"
  },
  {
    "COMPOUND": "O=C(c1ccc(F)c(F)c1Nc1ccc(I)cc1F)N1CC(O)([C@@H]2CCCCN2)C1 [Cobimetinib] (max concentration tested 1000 nM)",
    "CLASSIFICATION": "rule not met"
  },
  {
    "COMPOUND": "CC[C@]1(O)C[C@@H]2CN(CCc3c([nH]c4ccccc34)[C@@](C(=O)OC)(c3cc4c(cc3OC)N(C)[C@H]3[C@@](O)(C(=O)OC)[C@H](OC(C)=O)[C@]5(CC)C=CCN6CC[C@]43[C@@H]65)C2)C1 [Vinblastine] (max concentration tested 1000 nM)",
    "CLASSIFICATION": "rule not met"
  }
]
